Form field: % Stimulation Max (one value per entry).
# tested_system: Pro-Link-tagged Human GLP-1R (human) (UniProt P43220)
# Sequence (P43220 24-463): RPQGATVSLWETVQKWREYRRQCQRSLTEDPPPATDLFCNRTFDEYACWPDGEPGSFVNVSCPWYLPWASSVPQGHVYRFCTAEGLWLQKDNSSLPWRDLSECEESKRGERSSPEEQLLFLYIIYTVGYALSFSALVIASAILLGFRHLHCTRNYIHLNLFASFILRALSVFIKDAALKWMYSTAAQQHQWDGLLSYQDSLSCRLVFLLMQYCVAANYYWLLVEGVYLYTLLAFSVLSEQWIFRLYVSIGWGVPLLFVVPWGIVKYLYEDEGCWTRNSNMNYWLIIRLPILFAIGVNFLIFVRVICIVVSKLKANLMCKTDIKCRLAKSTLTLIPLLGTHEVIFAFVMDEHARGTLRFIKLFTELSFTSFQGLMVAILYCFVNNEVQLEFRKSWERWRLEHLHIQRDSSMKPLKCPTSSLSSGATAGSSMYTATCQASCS
# assay_info: cell-based or functional assay
Starred links: 1 amine or outer side, 2 acyl side, 3 side chain; linkers in the order of their positions; H or OH if unused. Non-standard residues stand in square brackets, D forms with d. Groups on a side chain read outwards from the residue. No end group written: not given here. *: point of attachment. C20 diacid = O=C(O)CCCCCCCCCCCCCCCCCCC(=O)*; γGlu = O=C(O)[C@H](CCC(=O)[*:2])N[*:1]; NMeY = CN[C@@H](Cc1ccc(O)cc1)C(=O)O; αMeF = C[C@](N)(Cc1ccccc1)C(=O)O; AEEA = NCCOCCOCC(=O)O; Aib = CC(C)(N)C(=O)O
Report the value in % with no unit label.

>  <binder>
[NMeY][Aib]QGT[αMeF]TSDYSILLDKQAAK([AEEA-AEEA-γGlu-C20 diacid])AFVQWLIEGGPSSGEPPPSEG-NH2 [Example 302]

>  <unit_name>
%

>  <% Stimulation Max>
56.6

$$$$

Turning to the following binder.
## Task Endpoint output: % Stimulation Max of YXQGTFTSDFSKXLDKKAQXAFIEYLLAGGPSSGEPPPSSE (not fully specified; synthetic construct; SITE 2: note = 2-Aminoisobutyric Acid; SITE 13: note = alpha-methyl-leucine; SITE 17: note = Lysine is chemically modified through conjugation of the epsilon-amino group of the Lysine side chain with (2-[2-(2-Amino-ethoxy)-ethoxy]-acetyl)-(gamma-Glu)-CO-(CH2) 18-CO2H; SITE 20: n) [Example 3] . Value?
## Result 16.5
